Source listed as paper PMC12075686.

# Target: TNPO3 C511A (Homo sapiens, UniProt Q9Y5L0, C511A)
# Construct: full-length (FL) WT human TNPO3 were generated by synthesizing codon-optimized DNA fragments; His6 (N, cleaved yes); protein A (N, cleaved yes); made in house; host or cells: Escherichia coli BL21-(DE3) Star
# Sequence (Q9Y5L0 whole entry C511A, the tested form may be a part): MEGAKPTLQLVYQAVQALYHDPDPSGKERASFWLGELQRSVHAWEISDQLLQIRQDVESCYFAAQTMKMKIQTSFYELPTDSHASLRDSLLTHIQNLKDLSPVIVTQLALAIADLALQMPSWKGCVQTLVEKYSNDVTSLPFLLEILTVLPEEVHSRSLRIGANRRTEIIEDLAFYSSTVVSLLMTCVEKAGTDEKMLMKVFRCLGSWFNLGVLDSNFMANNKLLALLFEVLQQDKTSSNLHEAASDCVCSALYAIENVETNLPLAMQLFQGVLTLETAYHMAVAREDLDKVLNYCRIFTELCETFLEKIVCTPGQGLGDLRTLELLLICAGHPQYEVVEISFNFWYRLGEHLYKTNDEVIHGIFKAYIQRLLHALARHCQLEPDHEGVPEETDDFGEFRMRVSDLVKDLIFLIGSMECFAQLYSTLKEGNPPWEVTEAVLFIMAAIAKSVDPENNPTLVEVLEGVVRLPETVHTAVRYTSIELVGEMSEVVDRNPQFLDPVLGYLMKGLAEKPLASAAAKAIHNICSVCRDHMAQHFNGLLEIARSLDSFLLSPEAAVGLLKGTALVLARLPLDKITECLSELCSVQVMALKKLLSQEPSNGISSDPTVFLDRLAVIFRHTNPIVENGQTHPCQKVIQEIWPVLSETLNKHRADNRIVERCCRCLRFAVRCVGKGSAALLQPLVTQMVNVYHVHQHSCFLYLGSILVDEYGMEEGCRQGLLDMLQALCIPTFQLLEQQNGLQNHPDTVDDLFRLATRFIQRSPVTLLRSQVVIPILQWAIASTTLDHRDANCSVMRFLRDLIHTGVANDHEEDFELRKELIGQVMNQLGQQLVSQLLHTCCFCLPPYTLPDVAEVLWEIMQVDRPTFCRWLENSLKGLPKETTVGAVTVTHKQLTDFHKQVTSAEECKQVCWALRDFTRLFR
# Run Description: ITC, ligand titrated into TNPO3 C511A
# Type: binding
# Experimental Conditions: TNPO3 C511A, two replicates
Endpoint: TNPO3 binding Kd, outcome in words

> print(dat)
                                  substance                            endpoint  readout.value
1  GGSYRDSYDpSYATHNE [CIRBP (157-172) S166pS, synthetic CIRBP (157-172) peptide with phosphorylated S166]  TNPO3 binding Kd, outcome in words     No binding
2  GGSYRDSpYDSYATHNE [CIRBP (157-172) Y164pY, synthetic CIRBP (157-172) peptide with phosphorylated Y164]  TNPO3 binding Kd, outcome in words     No binding
